Measured protein stability index, listed per entry.
B1: SLC6A17 (parent)
chain: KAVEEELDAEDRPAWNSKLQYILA

variants of: B1; test: protein stability index of a GFP-peptide fusion (GPS, HEK-293T) (PSI 1-6); higher = more stable; conditions: c terminus: a fixed tail appended;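 note: lentivirally expressed fusions sorted by FACS into six bins by GFP to DsRed ratio, PSI derived from sequencing read proportions per bin multiplied by bin number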
Keep the answer to the number alone.

For orientation, consider the following solved cases.
> print(dat)
   mutation.name         measurement.type  data.value
1            E6A  protein stability index        1.86
2            A9W  protein stability index        2.06
3            E6L  protein stability index         1.7
4           I22Y  protein stability index        3.94
5           Q20S  protein stability index        2.71

For the variant "L23F" , what protein stability index is on record?
3.03

For the variant "P13T" , what protein stability index is on record?
3.06

For the variant "E10C" , what protein stability index is on record?
2.23

For the variant "L7H" , what protein stability index is on record?
3.09

For the variant "Y21M" , what protein stability index is on record?
3.4

For the variant "E6W" , what protein stability index is on record?
1.16

For the variant "L19E" , what protein stability index is on record?
4.27

For the variant "K1L" , what protein stability index is on record?
2.08
